# test target: Ubiquitin carboxyl-terminal hydrolase isozyme L1 (Homo sapiens)
# Sequence (P09936 whole entry): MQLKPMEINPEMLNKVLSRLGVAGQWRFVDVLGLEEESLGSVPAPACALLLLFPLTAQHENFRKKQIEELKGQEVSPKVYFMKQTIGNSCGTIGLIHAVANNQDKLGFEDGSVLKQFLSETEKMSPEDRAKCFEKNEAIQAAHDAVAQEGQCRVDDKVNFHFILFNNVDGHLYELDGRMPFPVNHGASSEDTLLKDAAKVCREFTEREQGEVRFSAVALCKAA
# test description: Inhibition of 6His-tagged human UCHL1 using Ub-Rh110Gly as fluorogenic substrate preincubated for 1 hr followed by substrate addition by plate reader analysis
observation type: IC50 (µM)

• N#Cc1ncc(C(=O)NCc2ccc(C(=O)NC34CC5CC(CC(C5)C3)C4)cc2)cn1 = 4.2

====

# System: Chlamydia trachomatis
# test description: Anti-chlamydial activity against Chlamydia trachomatis serovar L2 infected in human HEp-2 cells assessed as inhibition of chlamydial inclusion incubated for 24 hrs by Alexa488/DAPI staining based immunofluorescence assay
# Assay type: functional, organism-based
# assay conditions: serovar L2, HEp-2, 24 h
observation type: IC50 (µg/mL)

* N#Cc1ncc(C(=O)NCc2ccc(C(=O)NCCC3CC3)cc2)cn1 | 40.7
* Cc1cccc(CNC(=O)c2ccc(CNC(=O)c3cnc(C#N)nc3)cc2)c1 | 17.3
* N#Cc1ncc(C(=O)NCc2ccc(C(=O)NCC3CCC3)cc2)cn1 | 38.9
* C[C@H]1c2cccc(O)c2C(=O)C2=C(O)[C@]3(O)C(=O)C(C(N)=O)=C(O)[C@@H](N(C)C)[C@@H]3[C@@H](O)[C@@H]21 [DOXYCYCLINE ANHYDROUS] | 0.018
